System: HCC-2998 colon
PROTOCOL DETAILS: NCI-60 one-dose screen, 48 h
APPLIED CONDITIONS: 10 µM unless noted
About 83,000 compounds went through this panel and 20% of them were active in at least one assay; those are over-represented in the sample as a whole. Calls of active or inactive are those of the source. Rule for the calls: active = growth percent below 10; inactive = the rest.
Classes used: 1 (yes) = active, 0 (no) = inactive

MOLECULE: O=C(/C=C/c1ccccc1)N[C@@H](CO)Cc1cnc[nH]1
CLASS ASSIGNMENT: 0 (no)

MOLECULE: COc1ccccc1N1CCN(CCc2c[nH]c3cc4c(cc23)OCO4)CC1
CLASS ASSIGNMENT: 0 (no)

MOLECULE: CCOC(=O)Nc1cc(Cl)c([N+](=O)[O-])c(NC(=O)OCC)n1
CLASS ASSIGNMENT: 0 (no)

MOLECULE: C=CCc1ccc(OC(=O)Cc2ccccc2)c(OC)c1
CLASS ASSIGNMENT: 0 (no)

MOLECULE: CC(C)(C)NCC(O)c1ccccc1Cl (stereo unspecified)
CLASS ASSIGNMENT: 1 (yes)

MOLECULE: CC1(C)N=C(N)N=C(N)N1c1ccc(CCCCc2ccc(Cl)cc2S(=O)(=O)F)c(Cl)c1
CLASS ASSIGNMENT: 0 (no)

MOLECULE: C/C(=C\C(=O)O[C@H]1[C@@H]2[C@H](C)CC[C@H]2[C@]2(C)O[C@@]1(C1CCCCC1)C[C@H]2OC(=O)CO)c1ccccc1
CLASS ASSIGNMENT: 0 (no)

MOLECULE: CC1(C)N=C(N)N=C(N)N1c1ccc(CCCCc2ccc(S(=O)(=O)F)cc2)c(Cl)c1
CLASS ASSIGNMENT: 0 (no)

MOLECULE: c1cnc2c(c1)ccc1ncccc12
CLASS ASSIGNMENT: 0 (no)

MOLECULE: CC(C)(O)/C=C/C(=O)[C@](C)(O)[C@H]1[C@H](O)C[C@@]2(C)[C@@H]3CC=C4[C@@H](C=C(O)C(=O)C4(C)C)[C@]3(C)C(=O)C[C@]12C
CLASS ASSIGNMENT: 1 (yes)

MOLECULE: O=C1NC(=O)C(Cc2ccccc2)(Cc2ccccc2)C(=O)N1
CLASS ASSIGNMENT: 0 (no)

MOLECULE: CN=C(NN)NN
CLASS ASSIGNMENT: 0 (no)

MOLECULE: [O]=[Sn]([CH]1CCCCC1)[CH]1CCCCC1
CLASS ASSIGNMENT: 1 (yes)

MOLECULE: COc1cc[c]([Hg][Cl])cc1
CLASS ASSIGNMENT: 0 (no)

MOLECULE: O=C1c2ccccc2C(=O)N1[N+](=O)[O-]
CLASS ASSIGNMENT: 0 (no)

MOLECULE: CC(=O)[O][Hg][CH2]C1(C)COC(C)([CH2][Hg][O]C(C)=O)CO1 (stereo unspecified)
CLASS ASSIGNMENT: 1 (yes)

MOLECULE: CN(C)P1(N(C)C)=NP(N(C)C)(N(C)C)=NP(N(C)C)(N(C)C)=N1
CLASS ASSIGNMENT: 0 (no)

MOLECULE: COC1=CC(=O)OC(CCc2ccc3c(c2)OCO3)C1 (stereo unspecified)
CLASS ASSIGNMENT: 0 (no)

MOLECULE: CCCCN(CCCC)CC(O)c1ccccc1 (stereo unspecified)
CLASS ASSIGNMENT: 0 (no)

MOLECULE: COc1ccc(NP2(=O)OCC(C)(N)CO2)cc1 (stereo unspecified)
CLASS ASSIGNMENT: 0 (no)

MOLECULE: CC(C)(C)[Si](C)(C)OC1[C@@H](O[Si](C)(C)C(C)(C)C)[C@@H](CNC(=O)NC(=O)CF)O[C@H]1n1cnc2c(NC(=O)Nc3ccccc3)ncnc21 (stereo partly specified)
CLASS ASSIGNMENT: 0 (no)

MOLECULE: O=C1NC2(CCNCC2)Nc2ccccc21
CLASS ASSIGNMENT: 0 (no)

MOLECULE: CCCC(C)(C)c1ccc2c(c1)OC(C)(C)[C@@H]1CC=C(C)C[C@@H]21
CLASS ASSIGNMENT: 0 (no)

MOLECULE: O=CN1N=C(c2ccc3c(c2)OCO3)CC1c1sc(N(CCCl)CCCl)nc1Cl (stereo unspecified)
CLASS ASSIGNMENT: 0 (no)

MOLECULE: COc1cc(N(CCCl)CCCl)ccc1C=Nc1ccccc1C(=O)O
CLASS ASSIGNMENT: 0 (no)

MOLECULE: CCC(CO)NC1CCCCC1 (stereo unspecified)
CLASS ASSIGNMENT: 0 (no)

MOLECULE: NC(=O)OCC(CO)(c1ccccc1)c1ccccc1
CLASS ASSIGNMENT: 0 (no)

MOLECULE: NC(Cc1ccc2c(c1)OCO2)c1ccc2c(c1)OCO2 (stereo unspecified)
CLASS ASSIGNMENT: 0 (no)

MOLECULE: COc1ccc(/C=C(/C(=O)N2CCCC2)c2cc(OC)c(OC)c(OC)c2)cc1N
CLASS ASSIGNMENT: 0 (no)

MOLECULE: CNC(=O)O/N=C(/C)c1ccc(Cl)cc1
CLASS ASSIGNMENT: 0 (no)

MOLECULE: CC(=O)Nc1ccc(C=C2C(=O)NC(=O)NC2=O)cc1
CLASS ASSIGNMENT: 0 (no)

MOLECULE: CC[C@]12C=CCN3CC[C@@]4(c5ccc(OC)cc5N(C)[C@H]4[C@@](O)(C(=O)OC)[C@@H]1OC(=O)CCCN1CCN(CCCC(=O)O[C@@H]4[C@]5(CC)C=CCN6CC[C@@]7(c8ccc(OC)cc8N(C)[C@H]7[C@@]4(O)C(=O)OC)[C@@H]65)CC1)[C@@H]32
CLASS ASSIGNMENT: 1 (yes)

MOLECULE: CCC(C)[C@H]1O[C@]2(C=C[C@@H]1C)C[C@@H]1C[C@@H](C/C=C(\C)[C@@H](OC3C[C@H](OC)C(O[C@H]4C[C@H](OC)[C@@H](O)[C@H](C)O4)[C@H](C)O3)[C@@H](C)/C=C/C=C3\CO[C@@H]4[C@H](O)C(C)=C[C@@H](C(=O)O1)[C@]34O)O2 (stereo partly specified)
CLASS ASSIGNMENT: 1 (yes)

MOLECULE: O=C(CCF)c1ccc(O)cc1
CLASS ASSIGNMENT: 0 (no)

MOLECULE: C[C@]12CC[C@H]3[C@@H](C[C@@H]4N=C(c5ccc(O)cc5)S[C@@]45C[C@H](O)CC[C@]35C)[C@@H]1CC[C@@H]2O
CLASS ASSIGNMENT: 0 (no)

MOLECULE: N#C[Se]CCCNS(=O)(=O)C1CC2C=CC1C2 (stereo unspecified)
CLASS ASSIGNMENT: 1 (yes)

MOLECULE: CC1([N+](=O)[O-])COP(=O)(Nc2ccc(F)cc2)OC1 (stereo unspecified)
CLASS ASSIGNMENT: 0 (no)

MOLECULE: c1ccc(CCN2CCCCC2Cc2ccccc2)cc1 (stereo unspecified)
CLASS ASSIGNMENT: 0 (no)

MOLECULE: Cc1ccc(C(=O)C2CN(C)CCC2(O)c2ccc(C)cc2)cc1 (stereo unspecified)
CLASS ASSIGNMENT: 0 (no)

MOLECULE: CC(/C=N/N=C(N)N)=N\N=C(N)N
CLASS ASSIGNMENT: 1 (yes)

MOLECULE: [N-]=[N+]=NC(C(=O)O)c1ccccc1 (stereo unspecified)
CLASS ASSIGNMENT: 0 (no)
